ASSAY_SYSTEM: T1, PSMA Fab (006 PSMA Fab)
T1 construct: In the phage ELISA the PSMA Fab was biotinylated and captured on neutravidin coated plates; also called Anti-PSMA Fab; anti-PSMA Fab
METHOD_NOTES: clonal phage ELISA on biotinylated PSMA Fab captured on neutravidin plates, anti-M13-HRP detection;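 note: crude clonal phage supernatants added to wells preincubated with PSMA antigen or with blocking buffer only (no wash between), briefly incubated, then washed before detecting bound phage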
Where no end group is shown, it is not given here.
MEASUREMENT_NAME: Phage binding ELISA signal, Anti-PSMA Fab
# output: bare number, no unit

For the binder LWKWCTPPWMCEVS (cysteine pairing not given here; also: displayed on bacteriophage by fusion to pIII) [Phage-2415] , report Phage binding ELISA signal, Anti-PSMA Fab. 1.34

For the binder FSKLCIPAWMCSEE (cysteine pairing not given here; also: displayed on bacteriophage by fusion to pIII) [Phage-2418] , report Phage binding ELISA signal, Anti-PSMA Fab. 1.34

For the binder FDPWCIPLWMCEGM (cysteine pairing not given here; also: displayed on bacteriophage by fusion to pIII) [Phage-2417] , report Phage binding ELISA signal, Anti-PSMA Fab. 1.34

For the binder VEKWCTPPWMCRFD (cysteine pairing not given here; also: displayed on bacteriophage by fusion to pIII) [Phage-2414] , report Phage binding ELISA signal, Anti-PSMA Fab. 1.34

For the binder EIKWCIPSWMCNTL (cysteine pairing not given here; also: displayed as fusion to phage pIII) [Phage-2420] , report Phage binding ELISA signal, Anti-PSMA Fab. 1.33

For the binder MHHWCIPAWMCSTE [Phage-2410] , report Phage binding ELISA signal, Anti-PSMA Fab. 1.35

For the binder VDHWCTPEWMCVMM [Phage-2408] , report Phage binding ELISA signal, Anti-PSMA Fab. 1.36

For the binder PDKWCIPQWMCSQM (cysteine pairing not given here; also: fused to phage pIII (clonal phage display)) [Phage-2406] , report Phage binding ELISA signal, Anti-PSMA Fab. 1.36

For the binder GEKWCIPDWMCAAA (cysteine pairing not given here; also: displayed on bacteriophage by fusion to pIII) [Phage-2412] , report Phage binding ELISA signal, Anti-PSMA Fab. 1.34

For the binder SERWCIPQWMCTAP (cysteine pairing not given here; also: displayed on bacteriophage by fusion to pIII) [Phage-2416] , report Phage binding ELISA signal, Anti-PSMA Fab. 1.34

For the binder YIKWCTPPWMCELM [Phage-2409] , report Phage binding ELISA signal, Anti-PSMA Fab. 1.35

For the binder LDMRCTPAWMCEGF (cysteine pairing not given here; also: displayed on bacteriophage by fusion to pIII) [Phage-2413] , report Phage binding ELISA signal, Anti-PSMA Fab. 1.34

For the binder TVKWCVPPWMCSVP [Phage-2407] , report Phage binding ELISA signal, Anti-PSMA Fab. 1.36

For the binder QAKWCIPQWMCESY [Phage-2411] , report Phage binding ELISA signal, Anti-PSMA Fab. 1.35

For the binder MEKWCIPSWMCVGM [Phage-2405] , report Phage binding ELISA signal, Anti-PSMA Fab. 1.36

For the binder VAKWCIPSWMCETV (cysteine pairing not given here; also: displayed as fusion to phage pIII) [Phage-2419] , report Phage binding ELISA signal, Anti-PSMA Fab. 1.33
